biological target: UniProt:P81908; assay: Mixed inhibition of equine serum BChE using varying levels of […] chloride as substrate by Lineweaver-Burk plot analysis
pKi: −log10 of the molar value.
Threshold rule: pKi greater than or equal to 5 is t; below that, f.

COc1ccc(C(=O)Nc2c(Cl)cccc2Cl)cc1; f
O=C(Nc1c(Cl)cccc1Cl)c1ccccc1; t

// switching to the query compound
Does the reported pKi for O=C(Nc1c(Cl)cccc1Cl)c1ccc(Br)cc1 fall at or above the 5 mark?
t

---

target: Cholinesterase (Equus caballus); test: Inhibition of equine serum BChE using […] chloride as substrate preincubated for 15 mins followed by substrate addition and measured after 15 mins under dark condition by Ellman's method
Sequence (P81908 whole entry): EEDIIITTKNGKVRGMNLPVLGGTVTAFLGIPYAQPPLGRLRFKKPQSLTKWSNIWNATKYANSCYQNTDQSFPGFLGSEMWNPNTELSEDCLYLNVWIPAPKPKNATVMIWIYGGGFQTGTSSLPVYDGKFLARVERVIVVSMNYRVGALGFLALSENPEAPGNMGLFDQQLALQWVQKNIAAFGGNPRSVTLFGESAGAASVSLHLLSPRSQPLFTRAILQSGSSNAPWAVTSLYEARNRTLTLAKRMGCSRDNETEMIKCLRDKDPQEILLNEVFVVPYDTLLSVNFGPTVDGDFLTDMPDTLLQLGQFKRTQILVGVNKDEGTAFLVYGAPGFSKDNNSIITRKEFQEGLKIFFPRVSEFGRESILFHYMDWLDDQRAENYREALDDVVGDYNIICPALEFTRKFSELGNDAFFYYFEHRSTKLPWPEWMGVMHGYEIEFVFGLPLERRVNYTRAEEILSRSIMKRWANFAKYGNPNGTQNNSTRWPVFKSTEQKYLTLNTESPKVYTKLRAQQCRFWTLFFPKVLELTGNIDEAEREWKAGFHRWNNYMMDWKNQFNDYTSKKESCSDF
Please provide measured pIC50 for the entries that follow.
One number for each entry, as −log10 of the molar value.

Some compounds with known pIC50 results, for comparison:
O=C(Nc1c(Cl)cccc1Cl)c1ccc(F)cc1; 4.79
O=C(Nc1c(Cl)cccc1Cl)c1ccc(F)cc1F; 4.73
COc1cc(C(=O)Nc2c(Cl)cccc2Cl)cc(OC)c1OC; 4.68
COc1cccc(C(=O)Nc2c(Cl)cccc2Cl)c1; 5.26

Hi, could you look up pIC50 for each item in my list?
1. O=C(Nc1c(Cl)cccc1Cl)c1ccccc1Br
2. O=C(Nc1c(Cl)cccc1Cl)c1ccccc1
3. CCOc1ccccc1C(=O)Nc1c(Cl)cccc1Cl
4. O=C(Nc1c(Cl)cccc1Cl)c1ccc(Br)cc1

[5.96, 5.89, 5.22, 6.10]

Hi, could you look up pIC50 for each item in my list?
1. Cc1ccc(C(=O)Nc2c(Cl)cccc2Cl)cc1[N+](=O)[O-]
2. O=C(Nc1c(Cl)cccc1Cl)c1c(F)cccc1F

3.78
4.90

# pIC50 (compound: COc1ccc(C(=O)Nc2c(Cl)cccc2Cl)cc1 ) is 4.95
